- Tested on: A172 (Glioblastoma)
- Assay method text: Bliss excess, mean over the matrix (fraction); higher = more synergy
Overview of reported Bliss excess across a group of compounds:
Reply: number alone, nothing else.

CC1(C)CCC(CN2CCN(c3ccc(C(=O)NS(=O)(=O)c4ccc(NCC5CCOCC5)c([N+](=O)[O-])c4)c(Oc4cnc5[nH]ccc5c4)c3)CC2)=C(c2ccc(Cl)cc2)C1 [Venetoclax] + C[C@@H]1COCCN1C2=NC(=NC(=C2)C3(CC3)[S@](=N)(=O)C)C4=C5C=CNC5=NC=C4 [AZD6738] (first compound max 1 µM, 7x7, partner max 10 µM) :: -0.0141
COc1nnc2ccc(N3CCC(c4ccc(OCCN5CCN(C)C(=O)[C@H]5C)cc4)CC3)nn12 [AZD5153] + CCN(CCO)CCCOc1ccc2c(Nc3cc(CC(=O)Nc4cccc(F)c4)[nH]n3)ncnc2c1 [AZD2811] (first compound max 1 µM, 7x7, partner max 1 µM) :: -0.0466

In the following, a different compound is considered.
For reference, reported Bliss excess for CN(CCO)CC[C@H](CSc1ccccc1)Nc1ccc(S(=O)(=O)NC(=O)c2ccc(N3CCC([C@@H](O)c4ccccc4-c4ccc(Cl)cc4)CC3)cc2)cc1S(=O)(=O)C(F)(F)F [AZD4320] + C=CCn1c(=O)c2cnc(Nc3ccc(N4CCN(C)CC4)cc3)nc2n1-c1cccc(C(C)(C)O)n1 [AZD1775] (first compound max 1 µM, partner max 1 µM) stands at -0.0101

----------
- Tested on: HLE (Hepatocellular Carcinoma)
- Assay method text: combination Emax (second highest fraction inhibited in the dose matrix, 72 h); higher = more inhibition; extreme values may be limits of the assay
Overview of reported combination Emax across a group of compounds:
Reply: number alone, nothing else.

Reference set, count: 2
Cc1c2c(nn1C)CSCc1cc(n(C)n1)CSc1cc(c3ccccc3c1)OCCCc1c(C(=O)O)n(C)c3c-2c(Cl)ccc13 [AZD5991] + CS(=O)(=O)CCNCc1ccc(-c2ccc3ncnc(Nc4ccc(OCc5cccc(F)c5)c(Cl)c4)c3c2)o1 [Lapatinib] (first compound max 1 µM, 7x7, partner max 10 µM) :: 0.23
CS(=O)(=O)CCNCc1ccc(-c2ccc3ncnc(Nc4ccc(OCc5cccc(F)c5)c(Cl)c4)c3c2)o1 [Lapatinib] + Cn1cnc2c(F)c(Nc3ccc(Br)cc3Cl)c(C(=O)NOCCO)cc21 [Selumetinib] (first compound max 10 µM, 7x7, partner max 10 µM) :: 0.234

In the following, a different compound is considered.
For reference, reported combination Emax for CN(CCO)CC[C@H](CSc1ccccc1)Nc1ccc(S(=O)(=O)NC(=O)c2ccc(N3CCC([C@@H](O)c4ccccc4-c4ccc(Cl)cc4)CC3)cc2)cc1S(=O)(=O)C(F)(F)F [AZD4320] + CCN(CCO)CCCOc1ccc2c(Nc3cc(CC(=O)Nc4cccc(F)c4)[nH]n3)ncnc2c1 [AZD2811] (first compound max 1 µM, 7x7, partner max 1 µM) stands at 0.721

----------
Overview of reported Bliss excess across a group of compounds:
- System: HCC1143 (Breast Carcinoma)
- Assay method text: Bliss excess, mean over the matrix (fraction); higher = more synergy

Reference set, count: 6
NC1(C(=O)N[C@@H](CCO)c2ccc(Cl)cc2)CCN(c2ncnc3[nH]ccc23)CC1 [Capivasertib] + C[C@@H]1COCCN1C2=NC(=NC(=C2)C3(CC3)[S@](=N)(=O)C)C4=C5C=CNC5=NC=C4 [AZD6738] (first compound max 10 µM, 7x7, partner max 10 µM) :: -0.105
CC1(C)CCC(CN2CCN(c3ccc(C(=O)NS(=O)(=O)c4ccc(NCC5CCOCC5)c([N+](=O)[O-])c4)c(Oc4cnc5[nH]ccc5c4)c3)CC2)=C(c2ccc(Cl)cc2)C1 [Venetoclax] + COc1cc(Nc2ncc3c(n2)-c2ccc(Cl)cc2C(c2c(F)cccc2OC)=NC3)ccc1C(=O)O [Alisertib] (first compound max 1 µM, 7x7, partner max 10 µM) :: 0.0244
CC1(C)CCC(CN2CCN(c3ccc(C(=O)NS(=O)(=O)c4ccc(NCC5CCOCC5)c([N+](=O)[O-])c4)c(Oc4cnc5[nH]ccc5c4)c3)CC2)=C(c2ccc(Cl)cc2)C1 [Venetoclax] + CCN(CCO)CCCOc1ccc2c(Nc3cc(CC(=O)Nc4cccc(F)c4)[nH]n3)ncnc2c1 [AZD2811] (first compound max 1 µM, 7x7, partner max 1 µM) :: 0.0005
Cc1cc2ncnn2cc1Nc1ncc2c(n1)n(C1CCOCC1)c(=O)n2C [AZD7648] + C=CCn1c(=O)c2cnc(Nc3ccc(N4CCN(C)CC4)cc3)nc2n1-c1cccc(C(C)(C)O)n1 [AZD1775] (first compound max 10 µM, partner max 1 µM) :: -0.0183
CC(=O)c1c(C)c2cnc(Nc3ccc(N4CCNCC4)cn3)nc2n(C2CCCC2)c1=O [Palbociclib] + CC1(C)CCC(CN2CCN(c3ccc(C(=O)NS(=O)(=O)c4ccc(NCC5CCOCC5)c([N+](=O)[O-])c4)c(Oc4cnc5[nH]ccc5c4)c3)CC2)=C(c2ccc(Cl)cc2)C1 [Venetoclax] (first compound max 10 µM, 7x7, partner max 1 µM) :: -0.0237
C=CCn1c(=O)c2cnc(Nc3ccc(N4CCN(C)CC4)cc3)nc2n1-c1cccc(C(C)(C)O)n1 [AZD1775] + O=C(c1cc(Cc2n[nH]c(=O)c3ccccc23)ccc1F)N1CCN(C(=O)C2CC2)CC1 [Olaparib] (first compound max 1 µM, partner max 10 µM) :: -0.0675

For reference, reported Bliss excess for Cc1c2c(nn1C)CSCc1cc(n(C)n1)CSc1cc(c3ccccc3c1)OCCCc1c(C(=O)O)n(C)c3c-2c(Cl)ccc13 [AZD5991] + Cc1cc2ncnn2cc1Nc1ncc2c(n1)n(C1CCOCC1)c(=O)n2C [AZD7648] (first compound max 1 µM, 7x7, partner max 10 µM) stands at 0.0124

For reference, reported Bliss excess for Cn1cnc2c(F)c(Nc3ccc(Br)cc3Cl)c(C(=O)NOCCO)cc21 [Selumetinib] + C=CCn1c(=O)c2cnc(Nc3ccc(N4CCN(C)CC4)cc3)nc2n1-c1cccc(C(C)(C)O)n1 [AZD1775] (first compound max 10 µM, partner max 1 µM) stands at -0.0112

For reference, reported Bliss excess for CN(C)CCCOc1ccc(-c2ccc3ncc4c(c3c2)n(C2CCOCC2)c(=O)n4C)cn1 [AZD0156] + CCN(CCO)CCCOc1ccc2c(Nc3cc(CC(=O)Nc4cccc(F)c4)[nH]n3)ncnc2c1 [AZD2811] (first compound max 1 µM, 7x7, partner max 1 µM) stands at 0.0372

For reference, reported Bliss excess for CN(CCO)CC[C@H](CSc1ccccc1)Nc1ccc(S(=O)(=O)NC(=O)c2ccc(N3CCC([C@@H](O)c4ccccc4-c4ccc(Cl)cc4)CC3)cc2)cc1S(=O)(=O)C(F)(F)F [AZD4320] + CN(C)CCCOc1ccc(-c2ccc3ncc4c(c3c2)n(C2CCOCC2)c(=O)n4C)cn1 [AZD0156] (first compound max 1 µM, 7x7, partner max 1 µM) stands at 0.0124

For reference, reported Bliss excess for Cc1c2c(nn1C)CSCc1cc(n(C)n1)CSc1cc(c3ccccc3c1)OCCCc1c(C(=O)O)n(C)c3c-2c(Cl)ccc13 [AZD5991] + C1CN(CCC1(C(=O)N[C@@H](CCO)C2=CC=C(C=C2)Cl)N)C3=NC=NC4=C3C=CN4 [Capivasertib] (first compound max 1 µM, 7x7, partner max 3 µM) stands at 0.0114

For reference, reported Bliss excess for NC1(C(=O)N[C@@H](CCO)c2ccc(Cl)cc2)CCN(c2ncnc3[nH]ccc23)CC1 [Capivasertib] + Cn1cnc2c(F)c(Nc3ccc(Br)cc3Cl)c(C(=O)NOCCO)cc21 [Selumetinib] (first compound max 10 µM, 7x7, partner max 10 µM) stands at -0.0014

For reference, reported Bliss excess for Cn1cnc2c(F)c(Nc3ccc(Br)cc3Cl)c(C(=O)NOCCO)cc21 [Selumetinib] + CC(C)n1c(=O)n(C)c2cnc3cc(F)c(-c4ccc(OCCCN5CCCCC5)nc4)cc3c21 [AZD1390] (first compound max 10 µM, 7x7, partner max 0.3 µM) stands at 0.013
